Molecular target: Acetylcholinesterase (Electrophorus electricus)
Sequence (O42275 whole entry): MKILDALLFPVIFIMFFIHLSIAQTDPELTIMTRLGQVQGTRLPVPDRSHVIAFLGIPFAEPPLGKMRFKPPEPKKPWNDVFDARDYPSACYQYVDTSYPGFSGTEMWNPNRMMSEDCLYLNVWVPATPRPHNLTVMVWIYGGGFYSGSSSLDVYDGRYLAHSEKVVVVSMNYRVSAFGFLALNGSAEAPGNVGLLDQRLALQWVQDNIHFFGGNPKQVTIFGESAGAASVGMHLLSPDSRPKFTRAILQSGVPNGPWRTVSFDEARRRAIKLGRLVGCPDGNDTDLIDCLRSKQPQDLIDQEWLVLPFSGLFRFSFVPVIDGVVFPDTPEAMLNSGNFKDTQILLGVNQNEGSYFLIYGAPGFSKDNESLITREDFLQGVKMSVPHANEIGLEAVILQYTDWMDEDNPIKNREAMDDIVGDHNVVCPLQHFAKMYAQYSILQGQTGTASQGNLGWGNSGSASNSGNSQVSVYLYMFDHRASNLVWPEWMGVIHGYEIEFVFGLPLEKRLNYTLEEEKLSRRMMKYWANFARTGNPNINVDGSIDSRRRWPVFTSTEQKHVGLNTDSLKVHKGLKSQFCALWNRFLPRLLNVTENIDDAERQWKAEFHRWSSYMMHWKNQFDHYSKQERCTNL
pIC50: −log10 of the molar value.
MEASURED_PARAMETER: pIC50

STRUCTURE: C#CCN(C)Cc1cc2cc(OCc3ccccc3)ccc2n1C
REPORTED_RESULT: < 4.00

STRUCTURE: C#CCN(C)Cc1cc2cc(OCCCN3CCN(Cc4ccccc4)CC3)ccc2n1C
REPORTED_RESULT: < 4.00

STRUCTURE: C#CCN(C)Cc1cc2cc(OCCN3CCC(Cc4ccccc4)CC3)ccc2n1C
REPORTED_RESULT: < 4.00

* * *

Target: Amine oxidase [flavin-containing] A (Rattus norvegicus)
Sequence (P21396 whole entry): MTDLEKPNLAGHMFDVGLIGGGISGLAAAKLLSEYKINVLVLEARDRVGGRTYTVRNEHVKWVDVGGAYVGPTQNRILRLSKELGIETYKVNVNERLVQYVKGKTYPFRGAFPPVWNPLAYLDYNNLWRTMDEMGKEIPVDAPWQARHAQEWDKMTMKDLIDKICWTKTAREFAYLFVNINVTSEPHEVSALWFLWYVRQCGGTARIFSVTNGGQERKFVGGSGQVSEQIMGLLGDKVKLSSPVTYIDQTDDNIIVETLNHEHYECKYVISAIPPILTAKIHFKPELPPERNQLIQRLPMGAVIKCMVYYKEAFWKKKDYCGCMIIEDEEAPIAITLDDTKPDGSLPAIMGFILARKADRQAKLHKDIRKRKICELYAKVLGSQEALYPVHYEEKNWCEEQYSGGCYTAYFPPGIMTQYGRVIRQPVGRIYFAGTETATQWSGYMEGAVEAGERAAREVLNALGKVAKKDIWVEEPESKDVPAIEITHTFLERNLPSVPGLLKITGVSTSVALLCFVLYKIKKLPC
pIC50: −log10 of the molar value.
pIC50 listing for selected molecules.
MEASURED_PARAMETER: pIC50

STRUCTURE: C#CCN(C)Cc1cc2cc(OCCN3CCC(Cc4ccccc4)CC3)ccc2n1C
MEASURED_PARAMETER: pIC50
REPORTED_RESULT: 6.85

STRUCTURE: C#CCN(C)Cc1cc2cc(OCCCCC3CCN(Cc4ccccc4)CC3)ccc2n1C
MEASURED_PARAMETER: pIC50
REPORTED_RESULT: 8.00

STRUCTURE: C#CCN(C)Cc1cc2cc(OCCCN3CCN(Cc4ccccc4)CC3)ccc2n1C
MEASURED_PARAMETER: pIC50
REPORTED_RESULT: 7.51

* * *

Molecular target: Amine oxidase [flavin-containing] B (Rattus norvegicus, UniProt P19643)
Sequence (P19643 whole entry): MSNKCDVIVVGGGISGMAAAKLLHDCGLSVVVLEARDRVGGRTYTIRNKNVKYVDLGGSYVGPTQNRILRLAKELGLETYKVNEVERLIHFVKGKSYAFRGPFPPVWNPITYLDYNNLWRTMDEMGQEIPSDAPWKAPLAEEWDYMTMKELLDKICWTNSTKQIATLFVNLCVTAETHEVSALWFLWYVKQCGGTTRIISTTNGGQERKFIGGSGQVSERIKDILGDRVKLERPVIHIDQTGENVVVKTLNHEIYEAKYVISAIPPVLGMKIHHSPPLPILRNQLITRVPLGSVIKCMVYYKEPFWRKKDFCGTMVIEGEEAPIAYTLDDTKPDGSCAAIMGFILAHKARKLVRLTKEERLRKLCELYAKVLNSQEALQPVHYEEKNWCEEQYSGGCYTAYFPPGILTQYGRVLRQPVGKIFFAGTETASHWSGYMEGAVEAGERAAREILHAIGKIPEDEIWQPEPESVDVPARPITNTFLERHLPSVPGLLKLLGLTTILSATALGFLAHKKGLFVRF
pIC50: −log10 of the molar value.
pIC50 listing for selected molecules.
MEASURED_PARAMETER: pIC50

STRUCTURE: C#CCN(C)Cc1cc2cc(OCCCN3CCC(Cc4ccccc4)CC3)ccc2n1C
ASSAYED_TARGET: Amine oxidase [flavin-containing] B (Rattus norvegicus, UniProt P19643)
REPORTED_RESULT: 4.96

STRUCTURE: C#CCN(C)Cc1cc2cc(OCCCN3CCN(Cc4ccccc4)CC3)ccc2n1C
ASSAYED_TARGET: Amine oxidase [flavin-containing] B (Rattus norvegicus, UniProt P19643)
REPORTED_RESULT: 5.80

STRUCTURE: C#CCN(C)Cc1cc2cc(OCCCCC3CCN(Cc4ccccc4)CC3)ccc2n1C
ASSAYED_TARGET: Amine oxidase [flavin-containing] B (Rattus norvegicus, UniProt P19643)
REPORTED_RESULT: 5.57

STRUCTURE: C#CCN(C)Cc1cc2cc(OCCN3CCC(Cc4ccccc4)CC3)ccc2n1C
ASSAYED_TARGET: Amine oxidase [flavin-containing] B (Rattus norvegicus, UniProt P19643)
REPORTED_RESULT: 5.85

* * *

Biological target: Amine oxidase [flavin-containing] B (Rattus norvegicus)
MEASURED_PARAMETER: Ki (µM)

STRUCTURE: C#CCN(C)Cc1cc2cc(OCCCC3CCN(Cc4ccccc4)CC3)ccc2n1C
ASSAYED_TARGET: Amine oxidase [flavin-containing] B (Rattus norvegicus)
REPORTED_RESULT: 0.011

* * *

Biological target: Cholinesterase (Homo sapiens, UniProt P06276)
Sequence (P06276 whole entry): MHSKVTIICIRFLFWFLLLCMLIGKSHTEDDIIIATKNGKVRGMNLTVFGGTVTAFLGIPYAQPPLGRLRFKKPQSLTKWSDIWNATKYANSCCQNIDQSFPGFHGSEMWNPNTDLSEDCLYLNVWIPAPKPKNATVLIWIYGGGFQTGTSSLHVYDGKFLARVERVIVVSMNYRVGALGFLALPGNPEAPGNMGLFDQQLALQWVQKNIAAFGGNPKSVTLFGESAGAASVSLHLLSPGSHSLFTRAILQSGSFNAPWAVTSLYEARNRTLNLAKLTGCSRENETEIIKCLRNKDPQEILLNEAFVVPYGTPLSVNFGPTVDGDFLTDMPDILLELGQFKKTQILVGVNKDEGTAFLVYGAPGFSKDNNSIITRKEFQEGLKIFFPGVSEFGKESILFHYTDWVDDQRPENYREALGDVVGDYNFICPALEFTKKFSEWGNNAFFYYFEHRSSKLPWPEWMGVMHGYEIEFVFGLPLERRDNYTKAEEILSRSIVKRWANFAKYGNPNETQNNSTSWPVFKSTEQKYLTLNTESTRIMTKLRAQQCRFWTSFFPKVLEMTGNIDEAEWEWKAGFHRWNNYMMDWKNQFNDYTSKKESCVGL
Experiment: Inhibition of human serum BuchE using butyrylthiocholine iodide as substrate preincubated for 10 mins measured after 15 mins of substrate addition by Ellman's method

STRUCTURE: C#CCN(C)Cc1cc2cc(OCCCC3CCN(Cc4ccccc4)CC3)ccc2n1C
IC50, µM: 1.7

* * *

Biological target: Acetylcholinesterase (Homo sapiens, UniProt P22303)
Sequence (P22303 whole entry): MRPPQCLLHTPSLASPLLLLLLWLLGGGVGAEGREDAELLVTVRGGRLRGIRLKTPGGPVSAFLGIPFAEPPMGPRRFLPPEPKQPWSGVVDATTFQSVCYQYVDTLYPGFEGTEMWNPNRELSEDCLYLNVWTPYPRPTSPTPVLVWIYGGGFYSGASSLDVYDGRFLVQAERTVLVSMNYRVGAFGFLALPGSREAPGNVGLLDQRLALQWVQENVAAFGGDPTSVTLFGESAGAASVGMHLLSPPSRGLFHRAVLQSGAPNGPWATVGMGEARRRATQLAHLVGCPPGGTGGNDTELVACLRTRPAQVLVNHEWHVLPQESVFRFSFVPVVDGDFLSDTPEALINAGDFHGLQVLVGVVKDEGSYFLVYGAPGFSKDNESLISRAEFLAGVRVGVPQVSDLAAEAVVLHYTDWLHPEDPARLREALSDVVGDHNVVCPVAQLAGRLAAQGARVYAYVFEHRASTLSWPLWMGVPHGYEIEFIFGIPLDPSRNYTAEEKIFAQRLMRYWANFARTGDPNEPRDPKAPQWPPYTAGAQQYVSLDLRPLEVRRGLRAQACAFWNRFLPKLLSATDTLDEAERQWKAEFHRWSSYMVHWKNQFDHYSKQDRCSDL
Experiment: Inhibition of cerebral human recombinant AchE expressed in HEK293 cells using acetylthiocholine iodide as substrate preincubated for 10 mins measured after 15 mins of substrate addition by Ellman's method

STRUCTURE: C#CCN(C)Cc1cc2cc(OCCCC3CCN(Cc4ccccc4)CC3)ccc2n1C
U: nM
IC50: 380
